The values you see were collected from patent US20040018198A1.

biological target: CA IX catalytic domain protein (CA9-CD) (human, UniProt Q16790 138-391); experiment: ELISA on CA9-CD (catalytic domain)
propertyName: OD (OD)
Could you give me the number in OD? Just the number is fine.

[[record]]
binder = "AB-MN-XG1-080 (antibody, human IgG1, V domains shown, also called MN80) VH: QVQLQESGPGLVKPSETLSLTCTVSGGSISSYYWSWIRQPPGKGLEWIGYIYYSGSTNYNPSLKSRVTISVDTSKNQFSLKLSSVTAADTAVYYCARDTRTIFGVVSGMDVWGQGTTVTVSS VL: EIVLTQSPGTLSLSPGERATLSCRASQSVYSSYLAWYQQKPGQAPRLLIYGASSRAPGIPDRFSGSGSGTDFTLTISRLEPEDFAVYYCQHYGRSLTFGGGTKVEIK"
propertyname = "OD"
unitname = "OD"
observedresult = 2.85


As a next step, examine the binder that follows.
Given the entry AB-MN-XG1-023 (antibody, human IgG1, V domains shown, also called MN23; AB-MN-XG1-23) VH: QVQLQESGPGLVKPSQTLSLTCTVSGGSISSGGYYWSWIRQHPGKGLEWIGYIYYSGSTYYNPSLKSRVTISVDTSKNQFSLKLSSVTAADTAVYYCARENYDILTGFNWFDPWGQGTLVTVSS VL: DIQMTQSPSSVSASVGDRVTITCRASQGISSWLAWYQQKPGKAPKVLIYSTSRLQSGVPSRFSGSGSGTDFTLTISSLQPEDFATYYCQQADSFRTFGQGTKVEIK , report its measured OD.
2.42
